Where do these numbers come from? They come from patent US20160297884A1.

Biological target: T1, Cynomolgus monkey BCMA (cynomolgus monkey)
T1 construct: Soluble analyte in SPR; also called cyBCMA; Cyno BCMA
Assay: SPR, IgG immobilised, cyno BCMA analyte
Below is a list of entries, each paired with its recorded koff value.
Numbers only; they are read as s⁻¹.

1. COMBO_Rd4_6nM_C11 (antibody, V domains shown, IgG) VH: EVQLLESGGGLVQPGGSLRLSCAASGFTFSSYPMSWVRQAPGKGLEWVSAIGGSGGSLGYADSVKGRFTISRDNSKNTLYLQMNSLRAEDTAVYYCARYWPMDSWGQGTLVTVSS VL: EIVLTQSPGTLSLSPGERATLSCRASQSVSPLYLAWYQQKPGQAPRLLMYDASIRATGIPDRFSGSGSGTDFTLTISRLEPEDFAVYYCQQYKAWPLTFGQGTKVEIK; 0.000412
2. C01_Rd4_6nM_C10 (antibody, V domains shown, IgG) VH: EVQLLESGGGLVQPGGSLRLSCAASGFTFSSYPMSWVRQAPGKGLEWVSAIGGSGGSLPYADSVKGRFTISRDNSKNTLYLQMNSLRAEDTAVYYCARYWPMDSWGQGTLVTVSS VL: EIVLTQSPGTLSLSPGERATLSCRASQSVSSVYLAWYQQKPGQAPRLLIYDASSRAPGIPDRFSGSGSGTDFTLTISRLEPEDFAVYYCQQYSTWPLTFGQGTKVEIK; 0.00219

Task: Given the entry A02_Rd4_0.6nM_C03 (antibody, V domains shown, IgG) VH: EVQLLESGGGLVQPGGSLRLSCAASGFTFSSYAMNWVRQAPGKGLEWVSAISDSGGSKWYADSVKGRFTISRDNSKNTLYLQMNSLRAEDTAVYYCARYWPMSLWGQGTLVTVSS VL: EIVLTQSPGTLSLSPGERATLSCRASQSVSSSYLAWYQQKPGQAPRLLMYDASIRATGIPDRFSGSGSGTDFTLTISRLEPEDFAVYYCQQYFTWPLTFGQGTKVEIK , report its measured koff.
Output: 0.000426
